measurement protocol: In vivo pharmacokinetic study in dogs, oral dose of ARI-158
Design: species or system male beagle dogs
conditions: male, beagle, dog, plasma, po, 10 mg/kg, dogs; 10 mg/kg oral dose of ARI-158; Dog 11
measurement label: Cmax (ng/mL)
Give your result in ng/mL as a bare value.

query: Data request, read-out Cmax, for "CCC(=O)c1csc(C(=O)c2cn(P(=O)([O-])[O-])c3cc(F)ccc23)n1.[Na+].[Na+]"
result: 561

###

measurement protocol: In vivo pharmacokinetic study in dogs, oral dose of ARI-158
Parameters: species or system male beagle dogs
conditions: male, beagle, dog, plasma, po, 10 mg/kg, dogs; 10 mg/kg oral dose of ARI-158; Dog 10
measurement label: half-life (h)
Give your result in h as a bare value.

query: Data request, read-out half-life, for CCC(=O)c1csc(C(=O)c2cn(P(=O)([O-])[O-])c3cc(F)ccc23)n1.[Na+].[Na+] [ARI-158]
result: 1.37
